- subject.of.test: T1, recombinant human MASP1 active protease (amino acids 297-699, C-terminal His Tag) (human, UniProt P48740 297-699)
- T1 sequence: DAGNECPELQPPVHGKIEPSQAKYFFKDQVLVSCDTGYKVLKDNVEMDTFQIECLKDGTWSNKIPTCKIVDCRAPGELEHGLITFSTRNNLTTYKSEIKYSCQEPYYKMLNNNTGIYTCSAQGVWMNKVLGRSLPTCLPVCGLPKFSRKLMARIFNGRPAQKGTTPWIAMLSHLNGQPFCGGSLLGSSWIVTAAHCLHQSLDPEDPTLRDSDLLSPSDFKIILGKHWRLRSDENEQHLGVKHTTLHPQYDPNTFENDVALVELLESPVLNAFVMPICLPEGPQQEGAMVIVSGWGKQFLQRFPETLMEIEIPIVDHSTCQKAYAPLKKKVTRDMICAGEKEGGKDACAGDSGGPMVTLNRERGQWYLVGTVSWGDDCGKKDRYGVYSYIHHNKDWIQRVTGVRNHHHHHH
- assay.summary: cell-based or functional assay
Numbered stars: 1 amine (or outer) side, 2 acyl side, 3 side chain; on linkers, the order of the positions; unused ones are H or OH. Bridge positions count the residues as written; N and C are the ends. Square brackets hold non-standard residues; d marks the D form. Ends that are not written are not given here. cPrCO(1-aminomethyl) = O=C(C1(CN[*:1])CC1)[*:2]; Oic = O=C(O)[C@@H]1C[C@@H]2CCCC[C@@H]2N1; NMeI = CC[C@H](C)[C@H](NC)C(=O)O; tBuAla = CC(C)(C)C[C@H](N)C(=O)O; Pen = CC(C)(S)[C@H](N)C(=O)O; NMeC = CN[C@@H](CS)C(=O)O
human MASP1 IC50 values by entry
Use nM as the unit, but write only the number.

// known answers, use as guide
RICSRS[tBuAla]PPI[NMeC]I-NH2 (disulfide 3-11; N-terminus assumed; SMILES CC[C@H](C)[C@H](NC(=O)[C@@H]1CSSC[C@H](NC(=O)[C@@H](NC(=O)[C@@H](N)CCCNC(=N)N)[C@@H](C)CC)C(=O)N[C@@H](CO)C(=O)N[C@@H](CCCNC(=N)N)C(=O)N[C@@H](CO)C(=O)N[C@@H](CC(C)(C)C)C(=O)N2CCC[C@H]2C(=O)N2CCC[C@H]2C(=O)N[C@@H]([C@@H](C)CC)C(=O)N1C)C(N)=O) [RIC+SRS-((tBu)A)-PPI-((N-Me)C)+I-NH2]: 1.7
[cPrCO(1-aminomethyl)]ICSRS[tBuAla]PPI[NMeC]I-NH2 (disulfide 3-11; N-terminus assumed; SMILES CC[C@H](C)[C@H](NC(=O)[C@@H]1CSSC[C@H](NC(=O)[C@@H](NC(=O)C2(CN)CC2)[C@@H](C)CC)C(=O)N[C@@H](CO)C(=O)N[C@@H](CCCNC(=N)N)C(=O)N[C@@H](CO)C(=O)N[C@@H](CC(C)(C)C)C(=O)N2CCC[C@H]2C(=O)N2CCC[C@H]2C(=O)N[C@@H]([C@@H](C)CC)C(=O)N1C)C(N)=O) [(ACMP)-IC+SRS-((tBu)A)-PPI-((N-Me)C)+I-NH2]: 2.6
IICSRS[tBuAla]PPI[Pen]IPD-NH2 (disulfide 3-11; N-terminus assumed; SMILES CC[C@H](C)[C@H](N)C(=O)N[C@H](C(=O)N[C@H]1CSSC(C)(C)[C@@H](C(=O)N[C@H](C(=O)N2CCC[C@H]2C(=O)N[C@@H](CC(=O)O)C(N)=O)[C@@H](C)CC)NC(=O)[C@H]([C@@H](C)CC)NC(=O)[C@@H]2CCCN2C(=O)[C@@H]2CCCN2C(=O)[C@H](CC(C)(C)C)NC(=O)[C@H](CO)NC(=O)[C@H](CCCNC(=N)N)NC(=O)[C@H](CO)NC1=O)[C@@H](C)CC) [IIC+SRS-((tBu)A)-PPI-(Pen)+IPD-NH2]: 2.1

Now for the binder whose human MASP1 IC50 we want.
Field request: human MASP1 IC50 | item: A[NMeI]CSRS[tBuAla]P[Oic]I[NMeC]IPD-NH2 (disulfide 3-11; N-terminus assumed; SMILES CC[C@H](C)[C@@H]1NC(=O)[C@@H]2C[C@@H]3CCCC[C@@H]3N2C(=O)[C@@H]2CCCN2C(=O)[C@H](CC(C)(C)C)NC(=O)[C@H](CO)NC(=O)[C@H](CCCNC(=N)N)NC(=O)[C@H](CO)NC(=O)[C@@H](NC(=O)[C@H]([C@@H](C)CC)N(C)C(=O)[C@H](C)N)CSSC[C@@H](C(=O)N[C@H](C(=O)N2CCC[C@H]2C(=O)N[C@@H](CC(=O)O)C(N)=O)[C@@H](C)CC)N(C)C1=O) [A-((N-Me)I)-C+SRS-((tBu)A)-P-(Oic)-I-((N-Me)C)+IPD-NH2]
3.1

Values compiled from patent US20210246166A1.
